- Tested on: HL-60
- assay procedure: Cytotoxicity against human HL60 cells treated under dark condition after 24 hrs by trypan blue assay
- Assay type: functional, cell-based
- test context: HL-60, 24 h
parameter measured: pIC50
Entry type: numeric. Quantity: pIC50, the -log10 of concentration in molar units.

Tell me reported pIC50 for CCN(CC)CCCNC(=O)c1nnc(C(=O)NCCCN(CC)CC)c2c1oc1c(C)c3oc(=O)cc(C)c3cc12 , tested with HL-60. 6.05

Also, CCN(CC)CCCNC(=O)c1nncc2oc3c(C)c4oc(=O)cc(C)c4cc3c12 please. 5.68

Also, CCN(CC)CCNC(=O)c1nnc(C(=O)NCCN(CC)CC)c2c1oc1c(C)c3oc(=O)cc(C)c3cc12 please. 5.92

Also, Cc1cc(=O)oc2c(C)c3oc4c(C(=O)NCCCN(C)C)nnc(C(=O)NCCCN(C)C)c4c3cc12 please. 5.42

Also, Cc1cc(=O)oc2c(C)c3oc4c(C(=O)NCCN(C)C)nnc(C(=O)NCCN(C)C)c4c3cc12 please. 6.05

Also, Cc1cc(=O)oc2c(C)c3oc4cnncc4c3cc12 please. 5.41

* * *

- Test system: HeLa
- assay procedure: Cytotoxicity against human HeLa cells treated under dark condition after 24 hrs by trypan blue assay
- Assay type: functional, cell-based
parameter measured: pIC50
Entry type: numeric. Quantity: pIC50, the -log10 of concentration in molar units.

Dear colleague, I am looking for the recorded pIC50 of the following compound: Cc1cc(=O)oc2c(C)c3oc4c(C(=O)NCCCN(C)C)nnc(C(=O)NCCCN(C)C)c4c3cc12 4.94

Also, CCN(CC)CCNC(=O)c1nnc(C(=O)NCCN(CC)CC)c2c1oc1c(C)c3oc(=O)cc(C)c3cc12 please. 4.76

Also, CCN(CC)CCCNC(=O)c1nnc(C(=O)NCCCN(CC)CC)c2c1oc1c(C)c3oc(=O)cc(C)c3cc12 please. 4.83

Also, Cc1cc(=O)oc2c(C)c3oc4c(C(=O)NCCN(C)C)nnc(C(=O)NCCN(C)C)c4c3cc12 please. 4.92

Also, CCN(CC)CCCNC(=O)c1nncc2oc3c(C)c4oc(=O)cc(C)c4cc3c12 please. 4.94

Also, Cc1cc(=O)oc2c(C)c3oc4cnncc4c3cc12 please. 5.07

* * *

- Tested on: HL-60
- assay procedure: Cytotoxicity against human HL60 cells after 24 hrs by trypan blue assay in presence of 0.789 J cm-2 of UVA light
- Assay type: functional, cell-based
- test context: HL-60, light or radiation study
Exercise: state measured pIC50 for each of the molecules provided.
Entry type: numeric. Quantity: pIC50, the -log10 of concentration in molar units.

Tell me reported pIC50 for Cc1cc(=O)oc2c(C)c3oc4c(C(=O)NCCCN(C)C)nnc(C(=O)NCCCN(C)C)c4c3cc12 , tested with HL-60. 5.59

Also, CCN(CC)CCCNC(=O)c1nnc(C(=O)NCCCN(CC)CC)c2c1oc1c(C)c3oc(=O)cc(C)c3cc12 please. 6.10

Also, CCN(CC)CCCNC(=O)c1nncc2oc3c(C)c4oc(=O)cc(C)c4cc3c12 please. 5.66

Also, CCN(CC)CCNC(=O)c1nnc(C(=O)NCCN(CC)CC)c2c1oc1c(C)c3oc(=O)cc(C)c3cc12 please. 5.46

Also, Cc1cc(=O)oc2c(C)c3oc4cnncc4c3cc12 please. 5.39

Also, Cc1cc(=O)oc2c(C)c3oc4c(C(=O)NCCN(C)C)nnc(C(=O)NCCN(C)C)c4c3cc12 please. 5.89
